- protocol: MTT cell viability, non-tumorigenic MCF-10A
- Type: cell-based
- run conditions: human, MCF-10A non-cancerous mammary epithelial cells, MTT, non-tumorigenic breast cells, read-out: Cytotoxic Activity IC50 MCF-10A
property label: IC50 at 72 h
Please state the number and follow it with the unit.

compound | property label | reported measurement
CC(=O)NCCCCCC(=O)Nc1ccc(O)cc1 [5b] | IC50 at 72 h | 169 µM

# context switch: different compound, same IC50 at 72 h
IC50 at 72 h recorded for this compound, O=C(CCCCCNC(=O)C(F)(F)F)Nc1ccc(O)cc1 [6b] , is 155 µM
